System: Staphylococcus epidermidis
Non-standard residues stand in square brackets, D forms with d. Residues, ends and D or L forms follow the SMILES beside them.
parameter-measured: MIC (µM)
Numbers only, in µM.

1) CC[C@@H](C)[C@@H](NC(=O)CN)C(=O)N[C@H](CC(C)C)C(=O)N[C@H](CO)C(=O)N[C@H](CO)C(=O)N[C@H](CC(C)C)C(=O)N[C@H](Cc1c[nH]c2ccccc12)C(=O)N[C@H](CCCCN)C(=O)N[C@H](CCCCN)C(=O)N[C@H](CC(C)C)C(=O)N[C@H](CCCCN)C(=O)N[C@H](CCCCN)C(=O)N[C@@H](C(=O)N[C@@H](C(=O)N[C@H](C)C(=O)N[C@H](CCCCN)C(N)=O)[C@H](C)CC)[C@H](C)CC (H-G[dI][dL][dS][dS][dL][dW][dK][dK][dL][dK][dK][dI][dI][dA][dK]-NH2) ... 1.7
2) CC[C@@H](C)[C@@H](NC(=O)CN)C(=O)N[C@H](CCSC)C(=O)N[C@H](CO)C(=O)N[C@H](CO)C(=O)N[C@H](CC(C)C)C(=O)N[C@H](CCSC)C(=O)N[C@H](CCCCN)C(=O)N[C@H](CCCCN)C(=O)N[C@H](CC(C)C)C(=O)N[C@H](CCCCN)C(=O)N[C@H](CCCCN)C(=O)N[C@@H](C(=O)N[C@@H](C(=O)N[C@H](C)C(=O)N[C@H](CCCCN)C(N)=O)[C@H](C)CC)[C@H](C)CC (H-G[dI][dM][dS][dS][dL][dM][dK][dK][dL][dK][dK][dI][dI][dA][dK]-NH2) ... 2.2

Record CC1(C)S[C@@H]2[C@H](NC(=O)[C@H](N)c3ccc(O)cc3)C(=O)N2[C@H]1C(=O)O , field MIC: 35

---

Test: Hemolytic activity in human type RBC after 1 hr
Format: ADME, cell-based, Erythrocyte
Settings: red blood cells (erythrocytes), read-out: LC50
Non-standard residues stand in square brackets, D forms with d. Residues, ends and D or L forms follow the SMILES beside them.
I'd appreciate it if you could supply HC50 at 1 h values for the items below.
Give bare numbers, in µM.

1. CC[C@@H](C)[C@@H](NC(=O)CN)C(=O)N[C@H](CC(C)C)C(=O)N[C@H](CO)C(=O)N[C@H](CO)C(=O)N[C@H](CC(C)C)C(=O)N[C@H](Cc1c[nH]c2ccccc12)C(=O)N[C@H](CCCCN)C(=O)N[C@H](CCCCN)C(=O)N[C@H](CC(C)C)C(=O)N[C@H](CCCCN)C(=O)N[C@H](CCCCN)C(=O)N[C@@H](C(=O)N[C@@H](C(=O)N[C@H](C)C(=O)N[C@H](CCCCN)C(N)=O)[C@H](C)CC)[C@H](C)CC (H-G[dI][dL][dS][dS][dL][dW][dK][dK][dL][dK][dK][dI][dI][dA][dK]-NH2) ... 191

For the next question, use this compound.
Record CC[C@@H](C)[C@@H](NC(=O)CN)C(=O)N[C@H](CC(C)C)C(=O)N[C@H](CO)C(=O)N[C@H](CO)C(=O)N[C@H](CC(C)C)C(=O)N[C@H](CC(C)C)C(=O)N[C@H](CCCCN)C(=O)N[C@H](CCCCN)C(=O)N[C@H](CC(C)C)C(=O)N[C@H](CCCCN)C(=O)N[C@H](CCCCN)C(=O)N[C@@H](C(=O)N[C@@H](C(=O)N[C@H](C)C(=O)N[C@H](CCCCN)C(N)=O)[C@H](C)CC)[C@H](C)CC (H-G[dI][dL][dS][dS][dL][dL][dK][dK][dL][dK][dK][dI][dI][dA][dK]-NH2) , field HC50 at 1 h: 333

---

Test system: Staphylococcus aureus
Assay: Antimicrobial activity against Staphylococcus aureus 6271 assessed as reduction in bacterial growth after 20 hrs by broth microdilution assay
Details: Staphylococcus aureus, 6271, 20 h
Non-standard residues stand in square brackets, D forms with d. Residues, ends and D or L forms follow the SMILES beside them.
I'd appreciate it if you could supply MIC values for the items below.
Numbers only, in µM.

1. CC1(C)S[C@@H]2[C@H](NC(=O)[C@H](N)c3ccc(O)cc3)C(=O)N2[C@H]1C(=O)O ... 17

Record CC[C@@H](C)[C@@H](NC(=O)CN)C(=O)N[C@H](CC(C)C)C(=O)N[C@H](CO)C(=O)N[C@H](CO)C(=O)N[C@H](CC(C)C)C(=O)N[C@H](CC(C)C)C(=O)N[C@H](CCCCN)C(=O)N[C@H](CCCCN)C(=O)N[C@H](CC(C)C)C(=O)N[C@H](CCCCN)C(=O)N[C@H](CCCCN)C(=O)N[C@@H](C(=O)N[C@@H](C(=O)N[C@H](C)C(=O)N[C@H](CCCCN)C(N)=O)[C@H](C)CC)[C@H](C)CC (H-G[dI][dL][dS][dS][dL][dL][dK][dK][dL][dK][dK][dI][dI][dA][dK]-NH2) , field MIC: 5.7

---

Test system: Staphylococcus epidermidis
Assay: Antimicrobial activity against Staphylococcus epidermidis assessed as reduction in bacterial growth after 20 hrs by broth microdilution assay
Non-standard residues stand in square brackets, D forms with d. Residues, ends and D or L forms follow the SMILES beside them. ξ: configuration not given here. ξNle = CCCCC(N)C(=O)O
parameter-measured: MIC (µM)
Answers are plain numbers, in µM.

1. CC[C@@H](C)[C@@H](NC(=O)CN)C(=O)N[C@H](CC(C)C)C(=O)N[C@H](CO)C(=O)N[C@H](CO)C(=O)N[C@H](CC(C)C)C(=O)N[C@H](CC(C)C)C(=O)N[C@H](CCCCN)C(=O)N[C@H](CCCCN)C(=O)N[C@H](CC(C)C)C(=O)N[C@H](CCCCN)C(=O)N[C@H](CCCCN)C(=O)N[C@@H](C(=O)N[C@@H](C(=O)N[C@H](C)C(=O)N[C@H](CCCCN)C(N)=O)[C@H](C)CC)[C@H](C)CC (H-G[dI][dL][dS][dS][dL][dL][dK][dK][dL][dK][dK][dI][dI][dA][dK]-NH2) ... 3.2

For the next question, use this molecule.
Record CCCCC(NC(=O)[C@H](CC(C)C)NC(=O)[C@H](CO)NC(=O)[C@H](CO)NC(=O)C(CCCC)NC(=O)[C@@H](NC(=O)CN)[C@@H](C)CC)C(=O)N[C@@H](CCCCN)C(=O)N[C@@H](CCCCN)C(=O)N[C@@H](CC(C)C)C(=O)N[C@@H](CCCCN)C(=O)N[C@@H](CCCCN)C(=O)N[C@H](C(=O)N[C@H](C(=O)N[C@@H](C)C(N)=O)[C@@H](C)CC)[C@@H](C)CC (some centres not stated) (H-GI[ξNle]SSL[ξNle]KKLKKIIA-NH2) , field MIC: 2.5

---

Test system: Pseudomonas aeruginosa
Test: Antimicrobial activity against Pseudomonas aeruginosa 5482 assessed as reduction in bacterial growth after 20 hrs […]
Format: functional
Conditions: Pseudomonas aeruginosa, 5482, 20 h
I'd appreciate it if you could supply MIC values for the items below.
Give bare numbers, in µM.

1) H-GIMSSLMKKLAAHIAK-NH2 ... 20
2) H-GIMISLMKKLAAHIAK-NH2 ... 47
3) H-GIMSSLMKKLAKIIKK-NH2 ... 5.2
4) H-GIMSSLMKKLKKIIAK-NH2 ... 5

Batch: MIC for all items listed.
1. H-KILSSLLKKLKKIIAK-NH2
2. H-GIMSSLMKKLAAIIAK-NH2

[5, 8]

Batch: MIC for all items listed.
1. H-GKLSSLWKKLKKIIAK-NH2
2. H-GILSSLWKKLKKWIAK-NH2

6.8
13

---

Tested on: Staphylococcus aureus
Test: Antimicrobial activity against Staphylococcus aureus 6271 assessed as reduction in bacterial growth after 20 hrs by broth microdilution assay
Conditions: Staphylococcus aureus, 6271, 20 h
Non-standard residues stand in square brackets, D forms with d. Residues, ends and D or L forms follow the SMILES beside them. ξ: configuration not given here. ξNle = CCCCC(N)C(=O)O
parameter-measured: MIC

1. CC[C@@H](C)[C@@H](NC(=O)CN)C(=O)N[C@H](CCSC)C(=O)N[C@H](CO)C(=O)N[C@H](CO)C(=O)N[C@H](CC(C)C)C(=O)N[C@H](CCSC)C(=O)N[C@H](CCCCN)C(=O)N[C@H](CCCCN)C(=O)N[C@H](CC(C)C)C(=O)N[C@H](CCCCN)C(=O)N[C@H](CCCCN)C(=O)N[C@@H](C(=O)N[C@@H](C(=O)N[C@H](C)C(=O)N[C@H](CCCCN)C(N)=O)[C@H](C)CC)[C@H](C)CC (H-G[dI][dM][dS][dS][dL][dM][dK][dK][dL][dK][dK][dI][dI][dA][dK]-NH2) ... 13 µM
2. CO[C@H]1/C=C/O[C@@]2(C)Oc3c(C)c(O)c4c(O)c(c(/C=N/N5CCN(C)CC5)c(O)c4c3C2=O)NC(=O)/C(C)=C\C=C\[C@H](C)[C@H](O)[C@@H](C)[C@@H](O)[C@@H](C)[C@H](OC(C)=O)[C@@H]1C [RIFAMPIN] ... < 0.1 µM
3. CCCCC(NC(=O)[C@H](CC(C)C)NC(=O)[C@H](CO)NC(=O)[C@H](CO)NC(=O)C(CCCC)NC(=O)[C@@H](NC(=O)CN)[C@@H](C)CC)C(=O)N[C@@H](CCCCN)C(=O)N[C@@H](CCCCN)C(=O)N[C@@H](CC(C)C)C(=O)N[C@@H](CCCCN)C(=O)N[C@@H](CCCCN)C(=O)N[C@H](C(=O)N[C@H](C(=O)N[C@@H](C)C(N)=O)[C@@H](C)CC)[C@@H](C)CC (stereo not given in full) (H-GI[ξNle]SSL[ξNle]KKLKKIIA-NH2) ... 13 µM

Batch: MIC for all items listed.
1. CC[C@@H](C)[C@@H](NC(=O)CN)C(=O)N[C@H](CC(C)C)C(=O)N[C@H](CO)C(=O)N[C@H](CO)C(=O)N[C@H](CC(C)C)C(=O)N[C@H](Cc1c[nH]c2ccccc12)C(=O)N[C@H](CCCCN)C(=O)N[C@H](CCCCN)C(=O)N[C@H](CC(C)C)C(=O)N[C@H](CCCCN)C(=O)N[C@H](CCCCN)C(=O)N[C@@H](C(=O)N[C@@H](C(=O)N[C@H](C)C(=O)N[C@H](CCCCN)C(N)=O)[C@H](C)CC)[C@H](C)CC (H-G[dI][dL][dS][dS][dL][dW][dK][dK][dL][dK][dK][dI][dI][dA][dK]-NH2)
2. CN(C)[C@@H]1C(O)=C(C(N)=O)C(=O)[C@@]2(O)C(O)=C3C(=O)c4c(O)cccc4[C@@](C)(O)[C@H]3C[C@@H]12 [TETRACYCLINE]

1: 6.3 µM; 2: 0.9 µM

Origin of the recorded values: ChEMBL document CHEMBL4477183
